Reported values of IC50 for individual entries
# Tested On: Telomerase reverse transcriptase (Homo sapiens, UniProt O14746)
# Sequence (O14746 whole entry): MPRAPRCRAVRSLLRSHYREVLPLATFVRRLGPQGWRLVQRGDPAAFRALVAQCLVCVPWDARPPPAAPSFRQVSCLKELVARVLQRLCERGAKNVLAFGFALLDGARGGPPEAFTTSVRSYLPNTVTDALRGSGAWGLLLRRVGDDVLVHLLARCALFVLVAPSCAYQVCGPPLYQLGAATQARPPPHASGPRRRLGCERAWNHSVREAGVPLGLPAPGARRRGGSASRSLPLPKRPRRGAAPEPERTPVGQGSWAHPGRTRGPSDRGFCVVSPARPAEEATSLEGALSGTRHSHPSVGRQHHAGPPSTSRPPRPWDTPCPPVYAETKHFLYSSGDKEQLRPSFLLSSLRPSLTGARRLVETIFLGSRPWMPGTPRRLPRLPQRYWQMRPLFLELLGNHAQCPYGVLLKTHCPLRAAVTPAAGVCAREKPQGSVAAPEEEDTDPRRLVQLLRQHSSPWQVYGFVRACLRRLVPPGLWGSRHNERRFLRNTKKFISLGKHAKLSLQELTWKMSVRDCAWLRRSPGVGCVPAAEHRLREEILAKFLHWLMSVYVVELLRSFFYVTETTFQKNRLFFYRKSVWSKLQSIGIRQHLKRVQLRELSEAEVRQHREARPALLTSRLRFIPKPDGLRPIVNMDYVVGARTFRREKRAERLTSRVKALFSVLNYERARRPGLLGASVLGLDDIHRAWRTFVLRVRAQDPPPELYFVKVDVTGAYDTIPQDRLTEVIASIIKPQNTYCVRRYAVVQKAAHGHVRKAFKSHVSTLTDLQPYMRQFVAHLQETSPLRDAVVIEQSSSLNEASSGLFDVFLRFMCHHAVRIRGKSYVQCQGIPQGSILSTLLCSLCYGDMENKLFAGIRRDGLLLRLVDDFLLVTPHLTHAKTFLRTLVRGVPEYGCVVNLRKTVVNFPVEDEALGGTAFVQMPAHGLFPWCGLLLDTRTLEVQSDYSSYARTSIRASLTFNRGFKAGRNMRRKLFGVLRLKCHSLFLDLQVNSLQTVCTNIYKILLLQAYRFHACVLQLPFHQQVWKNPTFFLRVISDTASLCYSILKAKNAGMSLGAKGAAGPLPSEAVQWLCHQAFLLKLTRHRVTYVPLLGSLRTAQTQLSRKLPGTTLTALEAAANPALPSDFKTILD
# Test Summary: Inhibition of telomerase activity in human MGC803 cells after 24 hrs by TRAP-PCR-ELISA assay
Metric: IC50 (µM)

>>> recorded_number("CC[n+]1c(-c2ccccc2)c2cc(N)ccc2c2ccc(N)cc21 [HOMIDIUM BROMIDE]")
2.47
>>> recorded_number("CC1=NN(C(=O)CN2CCC(O)CC2)C(c2ccccc2O)C1 (configuration not stated)")
9.11
>>> recorded_number("CC1=NN(C(=O)CN2CCC(C(F)(F)F)CC2)C(c2ccccc2O)C1 (configuration not stated)")
8.81
>>> recorded_number("O=C(CN1CCC(Br)CC1)N1N=C(c2cc3ccccc3oc2=O)CC1c1ccccc1 (configuration not stated)")
4.11
>>> recorded_number("CC1=NN(C(=O)CN2CCCCC2[N+](=O)[O-])C(c2ccccc2O)C1 (configuration not stated)")
42.1
>>> recorded_number("CC1CCN(CC(=O)N2N=C(c3cc4ccccc4oc3=O)CC2c2ccccc2)CC1 (configuration not stated)")
2
>>> recorded_number("CC1=NN(C(=O)CN2CCC(C)CC2)C(c2ccccc2O)C1 (configuration not stated)")
5.99

These entries and their values trace back to ChEMBL document CHEMBL2010787.
